Target: VEGFR-2 (human, UniProt P35968 20-1356)
Sequence (P35968 20-1356): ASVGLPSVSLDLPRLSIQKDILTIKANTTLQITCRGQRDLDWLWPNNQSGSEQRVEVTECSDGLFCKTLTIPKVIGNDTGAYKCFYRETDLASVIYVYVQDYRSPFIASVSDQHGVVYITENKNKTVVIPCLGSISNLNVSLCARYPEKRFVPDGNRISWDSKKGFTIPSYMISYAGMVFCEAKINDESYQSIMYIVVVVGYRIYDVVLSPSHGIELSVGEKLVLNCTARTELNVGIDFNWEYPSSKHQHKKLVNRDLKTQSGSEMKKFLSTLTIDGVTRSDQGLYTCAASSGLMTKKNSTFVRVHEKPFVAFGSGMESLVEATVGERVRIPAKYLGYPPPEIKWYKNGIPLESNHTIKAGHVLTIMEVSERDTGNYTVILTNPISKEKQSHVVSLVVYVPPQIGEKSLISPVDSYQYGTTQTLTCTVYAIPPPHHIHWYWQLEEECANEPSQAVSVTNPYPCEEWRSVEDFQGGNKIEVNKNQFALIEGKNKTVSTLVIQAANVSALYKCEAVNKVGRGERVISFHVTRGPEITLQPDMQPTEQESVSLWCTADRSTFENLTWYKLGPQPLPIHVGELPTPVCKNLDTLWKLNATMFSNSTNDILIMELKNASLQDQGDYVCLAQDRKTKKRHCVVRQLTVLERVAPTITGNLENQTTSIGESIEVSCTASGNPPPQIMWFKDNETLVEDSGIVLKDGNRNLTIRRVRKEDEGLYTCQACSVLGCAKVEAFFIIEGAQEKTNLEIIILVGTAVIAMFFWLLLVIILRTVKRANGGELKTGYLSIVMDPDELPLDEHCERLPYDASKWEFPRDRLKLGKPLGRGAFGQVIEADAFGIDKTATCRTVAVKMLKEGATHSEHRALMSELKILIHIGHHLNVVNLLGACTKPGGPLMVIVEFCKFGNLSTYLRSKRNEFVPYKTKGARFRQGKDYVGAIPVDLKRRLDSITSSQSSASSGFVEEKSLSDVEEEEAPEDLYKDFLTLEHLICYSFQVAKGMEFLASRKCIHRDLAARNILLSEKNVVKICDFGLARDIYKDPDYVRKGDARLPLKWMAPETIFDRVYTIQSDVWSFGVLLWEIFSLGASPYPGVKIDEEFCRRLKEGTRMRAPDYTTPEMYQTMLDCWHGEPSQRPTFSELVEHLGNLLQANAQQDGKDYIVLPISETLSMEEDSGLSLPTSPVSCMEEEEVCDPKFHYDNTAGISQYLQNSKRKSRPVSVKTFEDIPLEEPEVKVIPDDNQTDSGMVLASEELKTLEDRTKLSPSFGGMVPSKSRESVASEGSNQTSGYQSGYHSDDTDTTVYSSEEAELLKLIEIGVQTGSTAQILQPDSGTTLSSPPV
Test: cell-based or functional assay
Bridges are numbered along the chain shown (N, C = ends). Primed or numbered codes have the meaning given here. Where no end group is shown, it is not given here. [ ]: non-standard residue; d: D form. hTyr = N[C@@H](CCc1ccc(O)cc1)C(=O)O; Tle = CC(C)(C)[C@H](N)C(=O)O; Ahp′ = not defined here; Atb = not defined here
value.kind: pERK Assay Results (AlphaLISA p-Erk1/2, HUVEC)

binder: {CH2CO}-WW[Tle]DV[Ahp′]DDLYF[hTyr]DCG (thioether N-14; not fully specified (C-terminus); reading uncertain; also: dimer: Gly15 C-terminus joined to second copy by PEG12c-K-PEG12c (Linker Structure No. 1)) [Peptide complex Dimer Structure No. 36]
endpoint.value: ≥ 50 % activity at 100 nM
//
binder: {CH2CO}-WWVDVKGVNYF[hTyr]DCG-NH2 (thioether N-14; also: homodimer: Lys6 joined to Lys6 of second copy by OCOPEG13OCO (Linker Structure No. 5)) [Peptide complex Dimer Structure No. 37]
endpoint.value: ≥ 50 % activity at 100 nM

Value lookup for pERK Assay Results (AlphaLISA p-Erk1/2, HUVEC); key = {CH2CO}-WW[Tle]DVKDD[Atb]YF[hTyr]DCG-NH2 (thioether N-14; reading uncertain; also: homodimer: Lys6 joined to Lys6 of second copy by OCOPEG13OCO (Linker Structure No. 5)) [Peptide complex Dimer Structure No. 49] ≥ 50 % activity at 20 nM

Where these numbers come from: patent EP4748847A1
